// each record: one item and its ΔTm for Casein kinase II subunit alpha (Homo sapiens)
measured-property: ΔTm (°C)

For orientation, consider the following solved cases.
molecule: O=C(O)c1cc2cc(F)ccc2[nH]1
ΔTm (°C): 4.1

molecule: O=C(O)c1cccc(C(=O)O)n1
ΔTm (°C): -0.5

molecule: O=C(O)Cc1ccc(Cl)c(Cl)c1
ΔTm (°C): 0.7

molecule: Cc1cc(C(=O)O)ccc1N
ΔTm (°C): 0.5

molecule: O=C(O)c1ccc(O)cc1O
ΔTm (°C): 3.2

molecule: O=C(O)c1ccc(O)c(O)c1
ΔTm (°C): 2.4

molecule: O=c1cc(O)c2ccccc2o1
ΔTm (°C): 3.8

molecule: O=C(O)c1ccc[nH]c1=O
ΔTm (°C): -1.8

molecule: OC1CCC(N2CCNCC2)CC1 (stereo unspecified)
ΔTm (°C): 0.8

molecule: O=C(O)CCc1ccc(O)cc1
ΔTm (°C): 3.1

P. Nc1cccc(C(=O)O)c1
Q. CCCCOC(=O)N1CCC(N)CC1
Select one: P or Q . Criterion: greater recorded ΔTm. Bench note: the answer is the label of the chosen record.
Q

---

As an illustration, consider measured ΔTm for molecules on Casein kinase II subunit alpha (Homo sapiens) (UniProt P68400).
Sequence (P68400 whole entry, looked up): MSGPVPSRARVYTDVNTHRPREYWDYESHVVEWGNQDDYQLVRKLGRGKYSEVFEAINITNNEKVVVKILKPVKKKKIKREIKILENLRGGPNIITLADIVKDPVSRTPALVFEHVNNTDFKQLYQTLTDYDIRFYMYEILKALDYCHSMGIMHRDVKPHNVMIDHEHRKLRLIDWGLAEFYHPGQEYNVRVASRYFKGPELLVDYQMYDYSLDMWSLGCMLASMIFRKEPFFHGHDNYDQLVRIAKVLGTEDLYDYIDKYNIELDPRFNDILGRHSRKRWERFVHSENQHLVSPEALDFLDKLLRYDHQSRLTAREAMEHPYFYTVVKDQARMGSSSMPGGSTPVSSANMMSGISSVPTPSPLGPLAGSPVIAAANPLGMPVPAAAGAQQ
measured-property: ΔTm (°C)

smiles-record: O=C(O)c1ccc2cc[nH]c2c1
ΔTm, °C: 3
//
smiles-record: NNc1ccc(C(=O)O)cc1
ΔTm, °C: 3.8

1. Cc1ccc(O)c(C(=O)O)c1
2. O=C(O)C(=O)Cc1ccccc1
Input pair: 1 , 2 . Output: entry with lower ΔTm. Refer to your chosen entry by its label in the reply.
2
(2: -0.6 °C, 1: 4.1 °C)
